Measured kon by item
Molecular target: T1, PACAP38 (human, not fully specified)
T1 construct: The background says natural PACAP is alpha-amidated
T1 peptide: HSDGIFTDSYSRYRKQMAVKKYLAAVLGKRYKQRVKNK
Experiment: SPR (Biacore S200) off-rate ranking, antibody captured from supernatant, single injection of 33.3 nM PACAP38
Output spec: scalar in M⁻¹ s⁻¹, unitless text.

INSERT INTO results (binder, metric_name, result_units, test_value) VALUES
  ('605C (antibody, V domains shown) VH: EVQLVQSGAEVKKPGSSVKVSCKASGGTFSDSYMHWVRQAPGQGLEWMGLIYPIFADTRYAQKFQGRVTITADESTSTAYMELSSLRSEDTAVYYCAIDQDGSFAYWGQGTLVTVSS VL: DIVMTQSPDSLAVSLGERATINCKSSQSLLDADGKTYLNWLQQKPGQPPKRLIYWASTRESGVPDRFSGSGSGTDFTLTISSLQAEDVAVYYCWQGTWFDLTFGGGTKVEIK', 'kon', 'M⁻¹ s⁻¹', '3.33e+07'),
  ('627C (antibody, V domains shown) VH: EVQLVQSGAEVKKPGSSVKVSCKASGGTFSDVYMHWVRQAPGQGLEWMGLIYPIFADTRYAQKFQGRVTITADESTSTAYMELSSLRSEDTAVYYCAIDQDGSFAYWGQGTLVTVSS VL: DIVMTQSPDSLAVSLGERATINCKSSQSLLDSDGKTYLNWLQQKPGQPPKRLIYWASTRESGVPDRFSGSGSGTDFTLTISSLQAEDVAVYYCWQGTWFDLTFGGGTKVEIKR', 'kon', 'M⁻¹ s⁻¹', '2.1e+07'),
  ('608C (antibody, V domains shown) VH: EVQLVQSGAEVKKPGSSVKVSCKASGGTFSDLYMHWVRQAPGQGLEWMGLIYPIFADTRYAQKFQGRVTITADESTSTAYMELSSLRSEDTAVYYCAIDQDGSFAYWGQGTLVTVSS VL: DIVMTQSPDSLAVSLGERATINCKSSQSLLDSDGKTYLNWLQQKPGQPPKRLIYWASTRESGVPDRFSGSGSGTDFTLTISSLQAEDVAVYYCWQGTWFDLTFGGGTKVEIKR', 'kon', 'M⁻¹ s⁻¹', '7.19e+07'),
  ('604C (antibody, V domains shown) VH: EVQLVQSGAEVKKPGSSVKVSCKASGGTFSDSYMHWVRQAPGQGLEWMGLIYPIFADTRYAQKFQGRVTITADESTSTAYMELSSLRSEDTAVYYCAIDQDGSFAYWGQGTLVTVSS VL: DIVMTQSPDSLAVSLGERATINCKSSQSLLDSDGKTYLNWLQQKPGQPPKRLIYWASTRESGVPDRFSGSGSGTDFTLTISSLQAEDVAVYYCWQGTWFDLTFGGGTKVEIK', 'kon', 'M⁻¹ s⁻¹', '1.62e+07'),
  ('890C (antibody, human IgG2, kappa, V domains shown, Full chains as named ''890C heavy chain'' / ''890C light chain'' (IgG2DASS, kappa); also called anti-PACAP antibody 890C) VH: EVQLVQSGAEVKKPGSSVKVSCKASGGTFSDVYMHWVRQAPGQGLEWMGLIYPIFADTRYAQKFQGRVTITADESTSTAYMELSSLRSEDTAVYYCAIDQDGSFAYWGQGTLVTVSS VL: DIVMTQSPDSLAVSLGERATINCKSSQSLLDADGKTYLNWLQQKPGQPPKRLIYWASTRESGVPDRFSGSGSGTDFTLTISSLQAEDVAVYYCWQGTWFDLTFGGGTKVEIKR', 'kon', 'M⁻¹ s⁻¹', '2.36e+07');

# context switch: different binder, same kon
Prompt: So what's the measured kon for this one? 609C (antibody, V domains shown) VH: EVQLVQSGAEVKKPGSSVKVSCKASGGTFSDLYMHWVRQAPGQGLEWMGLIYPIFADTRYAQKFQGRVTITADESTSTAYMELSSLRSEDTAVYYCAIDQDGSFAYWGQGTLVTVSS VL: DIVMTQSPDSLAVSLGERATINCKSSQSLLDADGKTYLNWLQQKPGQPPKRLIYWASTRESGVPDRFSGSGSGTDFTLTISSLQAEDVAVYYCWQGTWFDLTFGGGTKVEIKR
Completion: 5.17e+07

The reported measurements were obtained from patent US20260226154A1.
